target: Cathepsin D (Homo sapiens, UniProt P07339)
Sequence (P07339 65-162 limits assumed): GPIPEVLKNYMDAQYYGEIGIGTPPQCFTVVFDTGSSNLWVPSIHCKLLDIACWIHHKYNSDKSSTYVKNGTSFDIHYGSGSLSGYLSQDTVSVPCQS
Sequence (P07339 169-412 limits assumed): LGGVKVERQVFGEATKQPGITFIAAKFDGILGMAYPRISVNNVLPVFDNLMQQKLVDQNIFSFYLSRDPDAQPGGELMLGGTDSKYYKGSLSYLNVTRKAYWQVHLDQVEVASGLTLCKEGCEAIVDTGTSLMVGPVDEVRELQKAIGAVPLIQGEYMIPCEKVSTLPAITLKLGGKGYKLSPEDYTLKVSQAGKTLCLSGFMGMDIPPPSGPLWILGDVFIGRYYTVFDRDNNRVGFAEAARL
READOUT_LABEL: pKi
Field pKi (float): negative decimal logarithm of the concentration in molar.

Query O=C(COc1c(Cl)cc(Cl)cc1Cl)N[C@@H](Cc1ccccc1)[C@@H](O)CN(CCc1ccc2c(c1)OCO2)C(=O)CCN1C(=O)c2ccccc2C1=O on Cathepsin D (Homo sapiens, UniProt P07339); pKi returned: 7.14
